Cited source: paper PMC5213647

# experimental target: collagen receptor glycoprotein VI (GP VI) (Homo sapiens)
# Construct: native full-length receptor, captured from total human platelet lysate by immobilised anti-GP VI mAb on SPR chip; described as 60-65 kDa type I transmembrane glycoprotein
# Sequence (Q9HCN6 21-339): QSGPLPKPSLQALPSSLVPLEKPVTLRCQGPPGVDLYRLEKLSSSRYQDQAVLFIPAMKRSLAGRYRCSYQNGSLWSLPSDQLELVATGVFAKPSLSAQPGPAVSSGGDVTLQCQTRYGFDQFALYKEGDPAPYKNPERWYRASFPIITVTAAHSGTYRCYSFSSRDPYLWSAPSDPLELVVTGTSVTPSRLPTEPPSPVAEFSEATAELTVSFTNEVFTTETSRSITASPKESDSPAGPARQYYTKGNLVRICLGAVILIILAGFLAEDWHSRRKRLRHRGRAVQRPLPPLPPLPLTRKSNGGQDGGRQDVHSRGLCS
# test protocol: SPR (ProteOn XPR36), GP VI captured by immobilised anti-GP VI mAb, kinetic […] Langmuir fit
# run conditions: PBS with 0.005% Tween 20, pH 7.4, 25 °C; native GP VI captured from platelet lysate; analyte only 10 and 100 μM
measurement label: Kd (µM)
One number for each entry, in µM.

Query block: Name the recorded Kd of the item "C=CCc1ccc(O)c(-c2ccc(O)c(CC=C)c2)c1" in your answer.
Result block: 289
